Molecular target: 5-HT4 receptor (Rattus norvegicus, UniProt Q62758)
Construct: muscular sample of mucous membrane in esophgus exentrated from a rat
Sequence (Q62758 whole entry): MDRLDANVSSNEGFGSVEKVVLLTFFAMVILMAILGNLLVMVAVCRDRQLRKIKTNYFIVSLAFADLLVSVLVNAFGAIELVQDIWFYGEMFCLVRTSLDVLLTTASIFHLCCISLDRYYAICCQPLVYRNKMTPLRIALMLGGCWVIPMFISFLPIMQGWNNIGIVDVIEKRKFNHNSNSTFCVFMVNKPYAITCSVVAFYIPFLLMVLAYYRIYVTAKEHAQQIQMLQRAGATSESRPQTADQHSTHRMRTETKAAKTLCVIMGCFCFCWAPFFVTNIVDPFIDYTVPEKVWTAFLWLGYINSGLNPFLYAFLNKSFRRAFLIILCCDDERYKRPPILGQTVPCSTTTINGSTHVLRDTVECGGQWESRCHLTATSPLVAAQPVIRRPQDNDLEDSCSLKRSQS
Test: Agonisting Action to 5-HT4 Receptor: relaxation of carbachol-contracted muscular sample of mucous membrane in rat esophagus
Conditions: negative logarithm of concentration causing 50% relaxation
recorded endpoint: EC50 (µM)

Examples with their reported EC50 follow.
molecule	EC50 [µM]
CCCc1c(N)c(Cl)cc(C(=O)NCCC23CCCN2CCC3)c1OC [Example 6]	0.501
COc1c(C(=O)NCCC23CCCN2CCC3)cc(Cl)c2c1CCN2 [Example 1]	5.01

[P] CCOc1c(C(=O)NCCC23CCCN2CCC3)cc(Cl)c2c1CCN2 [Example 2]
[Q] Cc1oc2c(C(=O)NCCC34CCCN3CCC4)cc(Cl)c(N)c2c1Cl [Example 5]
[R] CCCc1c(N)c(Cl)cc(C(=O)NCCC23CCCN2CCC3)c1OCC [Example 7]
[S] Cc1cc2c(N)c(Cl)cc(C(=O)NCCC34CCCN3CCC4)c2o1 [Example 4]
[T] Cc1oc2c(C(=O)NCCC34CCCN3CCC4)ccc(N)c2c1Cl [Example 3]
Challenge: Sort low-to-high on EC50, please. Please list each label once, in the requested order.
Response given: S, R, Q, T, P
(S: 0.0398 µM, R: 0.398 µM, Q: 0.794 µM, T: 2 µM, P: 5.01 µM)
